target-of-assay: T1, human TREK-2 protein (residues Gly67 to Glu340) (human)
T1 chain: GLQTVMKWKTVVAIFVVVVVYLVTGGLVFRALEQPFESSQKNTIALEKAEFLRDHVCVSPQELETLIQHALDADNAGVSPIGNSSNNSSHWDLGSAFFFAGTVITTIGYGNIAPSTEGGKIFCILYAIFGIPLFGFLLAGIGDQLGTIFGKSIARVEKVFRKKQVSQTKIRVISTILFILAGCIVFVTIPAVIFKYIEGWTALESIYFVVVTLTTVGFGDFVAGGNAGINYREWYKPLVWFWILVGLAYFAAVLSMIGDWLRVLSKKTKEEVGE
assay-metric: binding result

- binder: "CA10755 (VHH) VHH: QVQLVESGGGLVQAGGSLRLSCAASRSIVTINAMSWHRQAPGKQRELVASITKRGRTNIADSVKGRFAISWDRNTVYLQMNSLKPEDTAVYYCAALTDIPMNTYWGQGTQVTVSS"
  assay-metric: "binding result"
  result: "binds"
- binder: "CA10774 (VHH) VHH: QVQLVESGGGLVQPGGTLRLSCAASGFTFSSKPMSWARQAPGKGLEWVSAISRDGSSTNYADSVKGRFTISRNNAWNTLYLQMDNLKPEDTAVYYCFMGGTRGQGTQVTVSS"
  assay-metric: "binding result"
  result: "binds"
- binder: "CA10765 (VHH) VHH: QVQLVESGGGLVQAGGSLRLSCAASGFTFDDYAIGWFRQAPGKEREGVSCISSSDGSTYYADSVKGRFTISSDNAKNTVYLQMNSLKPEDTAVYYCAADPYLYCSDYGDSGTLSYYGVDYWGKGTQVTVSS"
  assay-metric: "binding result"
  result: "binds"
- binder: "CA10763 (VHH) VHH: QVQLVESGGGLVQAGGSLRLSCAASGLTFSGYPMGWFRQAPGKEREFVATISRSGNNMHYADSVKGRFTISRDNAKNTVSLQMNSLKPEDTAVYYCAADSTTLRRGVASVEYWGQGTQVTVSS"
  assay-metric: "binding result"
  result: "binds"

IN: Param item = CA10760 (VHH) VHH: QVQLVESGGGLVQAGGSLRLSCAASGLTFSAYNMGWFRQAPGKEREFVAAINRYGGTLYTTDSVKGRFTISRDNVKSTVDLQMNRLEPEDTAVYYCAADQQYMSRLEADFGSWGQGTQVTVSS ; retrieve measured binding result.
OUT: binds

IN: Param item = CA10759 (VHH) VHH: QVQLVESGGGLVQAGGSLRLSCAASGLTFSRYNMGWFRQAPGKEREFVAAINRYGGTMYATDSVKGRFTISRDNVKSTVDLQMNRLKPEDTAVYYCAADQQYMSRLEADFGSWGQGTQVTVSS ; retrieve measured binding result.
OUT: binds

IN: Param item = CA10766 (VHH) VHH: QVQLVESGGGLVQAGGSLRLSCAASGRSFSTYGIGWFRQAPGRERDLVASISWSGGGTYYADSVKGRSTISRDNAKNMVDLQMNSLKPEDTAVYYCAARRLGGVGRIVQYDYWGQGTQVTVSS ; retrieve measured binding result.
OUT: binds

IN: Param item = CA10780 (VHH) VHH: QVQLVESGGGLVQAGGSLRLSCAASGRTFSSYAMGWFRQAPGKEREFVAAISWSGGSTYYADSVKGRFTVSRDNAKNTVYLQMNSLKPEDTAVYYCAADSISTAQAMRVNERDYGMDYWGKGTQVTVSS ; retrieve measured binding result.
OUT: binds

IN: Param item = CA10779 (VHH) VHH: QVQLVESGGGAVQAGGSLRLSCASSDHSFTRYTIAWFRQAPGKEREFVAALTWNGGITNYADSVKGRFTISRENGKNTAYLQMDALESEDTAVYYCAAVFGPASLTREDMYEYWGQGTQVTVSS ; retrieve measured binding result.
OUT: binds
